target.of.assay: HLA-A*02:01 (Homo sapiens, UniProt P04439, D140Y/D185E/D98H/E176V/E277Q/G131W/G231S/I119V/I121R/I166T/I218V/L300P/L318F/N151K/N90K/P208A/P217A/Q86G/Q94H/R138H/R169H/T345S)
method.description: QuickSwitch Quant HLA-A*02:01 Tetramer control peptide exchange
experimental.readout: % Peptide Exchange (%)
Dear colleague, please return just the value in %, with no unit written.

construct.sequence: VMAYITGGV
% Peptide Exchange, %: 99.07

Now for the sequence whose % Peptide Exchange we want.
Value of measured % Peptide Exchange for the entry TLATHGLAAV : 97.98
